These entries and their values trace back to ChEMBL document CHEMBL5058577.

Below, each entry is listed alongside its reported Total Cell Count.
- System: U2OS
- assay_summary: Multiplex assay against U2OS
- Format: toxicity, cell-based
- assay_setup: human, 12 h, 1 µM, compound concentration 1 uM, replicate 1
metric_name: Total Cell Count

compound	assayed_system	observed
CN(C)c1ccnc2sc3c(=O)n(N4CCCCCC4)cnc3c12	U2OS	284
CSCC[C@H](NC=O)C(=O)N[C@@H](CC(C)C)C(=O)N[C@@H](Cc1ccccc1)C(=O)O	U2OS	254
CC1(COc2ccc3c(c2)ncn3-c2ccc3cccc(N4CCC(N)CC4)c3n2)COC1	U2OS	143
CC[C@H]1OC(=O)[C@H](C)[C@@H](O[C@H]2C[C@@](C)(OC)[C@@H](O)[C@H](C)O2)[C@H](C)[C@@H](O[C@@H]2O[C@H](C)C[C@H](N(C)C)[C@H]2O)[C@@]2(C)CC(C)=C(O2)[C@H](C)[C@@H](O)[C@]1(C)O	U2OS	226
CCNC1(C(N)=O)CCN(c2ncnc3c2nc(-c2ccccc2Cl)n3-c2ccc(Cl)cc2)CC1	U2OS	254
CC(C)(C)c1ccc(S(=O)(=O)Nc2ccc(Cl)cc2C(=O)c2cc[n+]([O-])cc2)cc1	U2OS	307
O=C1COc2nccc(-c3ccccc3F)c2CN1Cc1cc(C(F)(F)F)cc(C(F)(F)F)c1	U2OS	252
Cc1ccc(C(C)(O)c2nc3ccccc3s2)c(C)c1 (configuration not stated)	U2OS	249
CN1CCN2c3ncccc3Cc3ccccc3C2C1 (configuration not stated)	U2OS	301
Oc1c(CN2CCN(c3ccccn3)CC2)cc(Cl)c2cccnc12	U2OS	237
COc1ccc2c(c1)C(C(=O)N(Cc1ccc(N(C)C)cc1)c1ccc(C(C)C)cc1)CCC2.Cl (configuration not stated)	U2OS	264
CCOc1c2c(c(OCC)c3ncccc13)CN(c1ccc(CS(=O)(=O)NC(=O)Cc3ccccc3OC)cc1C)C2=O	U2OS	189
c1cc(OCCCN2CCCCC2)ccc1CN1CCCCC1	U2OS	253
CCCn1c(=O)c2[nH]c(C3CCCC3)nc2n(CCC)c1=O	U2OS	250
C[C@@H]1C[C@H]2[C@@H]3CCC4=CC(=O)C=C[C@]4(C)[C@@]3(F)[C@@H](O)C[C@]2(C)[C@@]1(O)C(=O)CO	U2OS	238
CN1CCN(c2nc3cc(C(F)(F)F)ccc3n3cccc23)CC1.O=C(O)/C=C\C(=O)O.O=C(O)/C=C\C(=O)O	U2OS	266
CC(=O)NCCc1c(Cc2ccccc2)[nH]c2ccccc12	U2OS	233

---

- Test system: U2OS
- assay_summary: Multiplex assay against U2OS
- Format: toxicity, cell-based
- assay_setup: human, 24 h, 1 µM, compound concentration 1 uM, replicate 1
Threshold-based label: Population Pyknosed Nuclei (%) under 8% gives satisfied, Population Pyknosed Nuclei (%) not under 8% gives not satisfied.

molecule	category_label
CCCN1CCC[C@@H]2Cc3n[nH]cc3C[C@H]21.Cl [QUINPIROLE HYDROCHLORIDE]	satisfied
CN1CCN(c2nc3cc(C(F)(F)F)ccc3n3cccc23)CC1.O=C(O)/C=C\C(=O)O.O=C(O)/C=C\C(=O)O	not satisfied
CC(C)(C)c1ccc(S(=O)(=O)Nc2ccc(Cl)cc2C(=O)c2cc[n+]([O-])cc2)cc1 [VERCIRNON]	satisfied
Cc1nc2ccc(Oc3ccc(F)cc3)cc2c(=O)n1C[C@H]1CCCN(C(C)C)C1.Cl	not satisfied
C[C@H]1[C@H]2CC[C@H]3[C@@H]4CC=C5C[C@@H](N(C)C)CC[C@]5(C)[C@H]4CC[C@]23CN1C [CONESSINE]	satisfied
CN(C)CCCc1cc(C(=O)Nc2ccc(-c3ccncc3)cc2)ccc1O.Cl.Cl	satisfied
Cc1ccccc1C(=O)Nc1ccc(C(=O)N2CCCC(N(C)C)c3ccccc32)cc1.Cl (configuration not stated)	not satisfied
O=C(NCCO)c1cccc(-c2cc(Nc3ccc(OC(F)(F)F)cc3)ncn2)c1	not satisfied
Cc1ccc(-c2ccc(F)cc2COc2ccc(CCC(=O)O)cc2)cc1	not satisfied
Oc1c(CN2CCN(c3ccccn3)CC2)cc(Cl)c2cccnc12	satisfied
COc1ccc2c(c1)C(C(=O)N(Cc1ccc(N(C)C)cc1)c1ccc(C(C)C)cc1)CCC2.Cl (configuration not stated)	not satisfied
CC[C@H]1OC(=O)[C@H](C)[C@@H](O[C@H]2C[C@@](C)(OC)[C@@H](O)[C@H](C)O2)[C@H](C)[C@@H](O[C@@H]2O[C@H](C)C[C@H](N(C)C)[C@H]2O)[C@@]2(C)CC(C)=C(O2)[C@H](C)[C@@H](O)[C@]1(C)O	not satisfied
O=C(O)Cc1ccccc1Nc1c(Cl)cccc1Cl [DICLOFENAC]	satisfied
CSc1ccccc1N1CCN(CCCCCC(=O)NC2CCCc3ccccc32)CC1.Cl (configuration not stated)	not satisfied
C[C@H](NC(=O)c1c(C(F)F)nn(C)c1Oc1cccc(C(F)(F)F)c1)c1ccc(C(=O)O)cc1 [PALUPIPRANT]	satisfied

---

Below, each entry is listed alongside its reported Population Pyknosed Nuclei (%).
- Test system: HEK-293T
- assay_summary: Multiplex assay against HEK293T
- Assay type: toxicity, cell-based
- assay_setup: human, 48 h, 10 µM, compound concentration 10 uM, replicate 2
metric_name: Population Pyknosed Nuclei (%)

                                    compound  observed
 0  O=C(O)c1cc2ccccc2c(Cc2c(O)c(C(=O)O)cc3ccccc23)c1O        5%
 1  Cl.Clc1ccc2nsnc2c1NC1=NCCN1 [TIZANIDINE HYDROCHLORIDE]        4%
 2        Cc1ccc(/C(=C\CN2CCCC2)c2ccccn2)cc1        7%
 3  O=C1COc2nccc(-c3ccccc3F)c2CN1Cc1cc(C(F)(F)F)cc(C(F)(F)F)c1        7%
 4  CN(C)CCCc1cc(C(=O)Nc2ccc(-c3ccncc3)cc2)ccc1O.Cl.Cl        7%
 5  COc1c(C)cc(NC(=O)c2nn(Cc3ccc(F)cc3)c3c2CN(C(=O)c2ccc[nH]2)C[C@]3(C)C(N)=O)cc1C        9%
 6  Oc1c(CN2CCN(c3ccccn3)CC2)cc(Cl)c2cccnc12       22%
 7  CN1CCN2c3ncccc3Cc3ccccc3C2C1 (stereo not drawn)        7%
 8  Cc1ccc(F)cc1C(=O)Nc1ccc(C(=O)N2Cc3cccn3Cc3ccccc32)c(Cl)c1       14%
 9  COc1cc(C(=O)N(CCCc2ccccc2)Cc2ccc(CC(=O)O)cc2)cc(OC)c1C        9%
10  C[C@H]1[C@H]2CC[C@H]3[C@@H]4CC=C5C[C@@H](N(C)C)CC[C@]5(C)[C@H]4CC[C@]23CN1C        7%
11  COc1ccc2c(c1)C(C(=O)N(Cc1ccc(N(C)C)cc1)c1ccc(C(C)C)cc1)CCC2.Cl (stereo not drawn)        8%
12  COc1cc(NC(=O)CCN2CCC(OC(=O)Nc3ccccc3-c3ccccc3)CC2)c(Cl)cc1CNC[C@H](O)c1ccc(O)c2[nH]c(=O)ccc12       11%
13  CCOc1c2c(c(OCC)c3ncccc13)CN(c1ccc(CS(=O)(=O)NC(=O)Cc3ccccc3OC)cc1C)C2=O        6%
14  Cc1ccccc1C(=O)Nc1ccc(C(=O)N2CCCC(N(C)C)c3ccccc32)cc1.Cl (stereo not drawn)       12%
15  CSc1ccccc1N1CCN(CCCCCC(=O)NC2CCCc3ccccc32)CC1.Cl (stereo not drawn)       13%
16  Cc1ccc(-c2ccc(F)cc2COc2ccc(CCC(=O)O)cc2)cc1        5%
17  CN1CCN(c2nc3cc(C(F)(F)F)ccc3n3cccc23)CC1.O=C(O)/C=C\C(=O)O.O=C(O)/C=C\C(=O)O       10%

---

- Tested on: HEK-293T
- assay_summary: Multiplex assay against HEK293T
- Type: toxicity, cell-based
- assay_setup: human, 12 h, 10 µM, compound concentration 10 uM, replicate 2
Below, each entry is listed alongside its reported Population Healthy Nuclei (%).
metric_name: Population Healthy Nuclei (%)

>>> df
                                   molecule  observed
0  C[C@@H]1C[C@H]2[C@@H]3CCC4=CC(=O)C=C[C@]4(C)[C@@]3(F)[C@@H](O)C[C@]2(C)[C@@]1(O)C(=O)CO        81
1  Cc1nc2ccc(Oc3ccc(F)cc3)cc2c(=O)n1C[C@H]1CCCN(C(C)C)C1.Cl        74
2  Oc1c(CN2CCN(c3ccccn3)CC2)cc(Cl)c2cccnc12        69
3  CN1CCN2c3ncccc3Cc3ccccc3C2C1 (centres undefined)        79
4   CN(C)c1ccnc2sc3c(=O)n(N4CCCCCC4)cnc3c12        72
5  COc1c(C)cc(NC(=O)c2nn(Cc3ccc(F)cc3)c3c2CN(C(=O)c2ccc[nH]2)C[C@]3(C)C(N)=O)cc1C        71
6  CSc1ccccc1N1CCN(CCCCCC(=O)NC2CCCc3ccccc32)CC1.Cl (centres undefined)        74
7  CC1(COc2ccc3c(c2)ncn3-c2ccc3cccc(N4CCC(N)CC4)c3n2)COC1        17
8  N[C@@]1(C(=O)O)CO[C@H]2[C@H](C(=O)O)[C@H]21        79
